Source listed as paper PMC11681868.

# system-name: rabbit antibody C7 scFv H-S54A (rabbit)
# Sequence (heavy, as listed by the source, chain 1 of 2): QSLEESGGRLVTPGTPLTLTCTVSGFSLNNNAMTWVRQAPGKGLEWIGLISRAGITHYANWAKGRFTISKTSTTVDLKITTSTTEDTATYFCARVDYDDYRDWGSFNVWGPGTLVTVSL
# Sequence (light, as listed by the source, chain 2 of 2): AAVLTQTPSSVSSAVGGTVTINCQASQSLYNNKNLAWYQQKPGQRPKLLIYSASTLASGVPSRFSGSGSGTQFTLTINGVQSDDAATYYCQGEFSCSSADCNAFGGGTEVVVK
# assay-summary: ITC; iTC200; 5 μM scFv in the cell, 50 μM peptide in the syringe; samples dialyzed against PBS; triplicate
pKd: −log10 of the molar value. Where no end group is shown, it is not given here. [ ]: non-standard residue; d: D form. pS = N[C@@H](COP(=O)(O)O)C(=O)O
property-measured: pKd

INSERT INTO measurements (binder, obs_value) VALUES
  ('RPHFPQF[pS]YSAS [phosphorylated Akt peptide]', 7.02);
